# Test Summary: Intrinsic clearance in rat liver microsomes
# Format: ADME
# Assay Conditions: read-out: CLH
What CLint scaled was measured for each of the following?

Exercise: So what does the record say about CLint scaled for O=C(Nc1ccc(C[C@@H]2CC[C@H]([C@H](O)c3ccccc3)N2)cc1)[C@@H]1CCc2nccc(=O)n21 [VIBEGRON] ?
Key: 20 mL/min/kg

Exercise: # CLint scaled lookup, item O=C(Nc1ccc(C[C@@H]2CC[C@H]([C@H](O)c3ccccc3)N2)cc1)[C@@H]1CCc2cccc(=O)n21
Key: 29 mL/min/kg

Exercise: Would you kindly share the measured CLint scaled for C[C@@H](C(=O)Nc1ccc(C[C@@H]2CC[C@H]([C@H](O)c3ccccc3)N2)cc1)n1ncccc1=O ?
Key: 31 mL/min/kg

Exercise: # lookup: CLint scaled of O=C(Cn1ncccc1=O)Nc1ccc(C[C@@H]2CC[C@H]([C@H](O)c3ccccc3)N2)cc1
Key: < 15 mL/min/kg

====

# Test Summary: Drug recovery in bile duct cannulated rat at 5 mg/kg, iv measured over 48 hrs
# Assay type: ADME, organism-based
# Assay Conditions: in vivo, read-out: Drug recovery
Measurement Label: dose excreted at 48 h
Just the number plus its unit, please.

Exercise: Reported dose excreted at 48 h, molecule O=C(Nc1ccc(C[C@@H]2CC[C@H]([C@H](O)c3ccccc3)N2)cc1)[C@@H]1CCc2nccc(=O)n21 [VIBEGRON] : ____
Key: 83%

====

# System: Rattus norvegicus
# Test Summary: Unbound clearance in rat at 1 mg/kg, iv or 2 mg/kg, po
# Format: ADME, organism-based
# Assay Conditions: in vivo
Exercise: for every item that follows, state its recorded CL free.
State the answer as a number, implicitly in mL/min/kg.

Exercise: Looking for the measured CL free of C[C@@H](C(=O)Nc1ccc(C[C@@H]2CC[C@H]([C@H](O)c3ccccc3)N2)cc1)n1ncccc1=O , can you help?
Key: 180

Exercise: # CL free lookup, item O=C(Nc1ccc(C[C@@H]2CC[C@H]([C@H](O)c3ccccc3)N2)cc1)[C@@H]1CCc2nccc(=O)n21
Key: 67

Exercise: Consider the molecule shown here: O=C(Cn1ncccc1=O)Nc1ccc(C[C@@H]2CC[C@H]([C@H](O)c3ccccc3)N2)cc1 What is its recorded CL free?
Key: 148

====

# Test Summary: Half life in rat at 1 mg/kg, iv or 2 mg/kg, po
# Type: ADME, organism-based
# Assay Conditions: in vivo
Label rule, in plain words: half-life of 5 h and up is 1 (yes), under 5 h is 0 (no).

Exercise: Could you verify whether the entry O=C(Nc1ccc(C[C@@H]2CC[C@H]([C@H](O)c3ccccc3)N2)cc1)[C@@H]1CCc2cccc(=O)n21 shows half-life of no less than 5 h?
Key: 0 (no)

Exercise: Given the entry O=C(Cn1cccnc1=O)Nc1ccc(C[C@@H]2CC[C@H]([C@H](O)c3ccccc3)N2)cc1 , answer whether its half-life meets or surpasses 5 h.
Key: 0 (no)

Exercise: Hi, just wondering whether C[C@@H](C(=O)Nc1ccc(C[C@@H]2CC[C@H]([C@H](O)c3cccnc3)N2)cc1)n1ncccc1=O shows half-life of 5 h or higher.
Key: 1 (yes)

Exercise: Is the recorded value of half-life equal to or greater than 5 h for this compound? C[C@@H](C(=O)Nc1ccc(C[C@@H]2CC[C@H]([C@H](O)c3ccccc3)N2)cc1)n1ncccc1=O
Key: 0 (no)

Exercise: Entry O=C(Nc1ccc(C[C@@H]2CC[C@H]([C@H](O)c3ccccc3)N2)cc1)[C@@H]1CCc2nccc(=O)n21 : is its half-life no less than 5 h?
Key: 1 (yes)
